Target: TYK2 (Homo sapiens)
Construct: purchased Invitrogen
Sequence (P29597 whole entry): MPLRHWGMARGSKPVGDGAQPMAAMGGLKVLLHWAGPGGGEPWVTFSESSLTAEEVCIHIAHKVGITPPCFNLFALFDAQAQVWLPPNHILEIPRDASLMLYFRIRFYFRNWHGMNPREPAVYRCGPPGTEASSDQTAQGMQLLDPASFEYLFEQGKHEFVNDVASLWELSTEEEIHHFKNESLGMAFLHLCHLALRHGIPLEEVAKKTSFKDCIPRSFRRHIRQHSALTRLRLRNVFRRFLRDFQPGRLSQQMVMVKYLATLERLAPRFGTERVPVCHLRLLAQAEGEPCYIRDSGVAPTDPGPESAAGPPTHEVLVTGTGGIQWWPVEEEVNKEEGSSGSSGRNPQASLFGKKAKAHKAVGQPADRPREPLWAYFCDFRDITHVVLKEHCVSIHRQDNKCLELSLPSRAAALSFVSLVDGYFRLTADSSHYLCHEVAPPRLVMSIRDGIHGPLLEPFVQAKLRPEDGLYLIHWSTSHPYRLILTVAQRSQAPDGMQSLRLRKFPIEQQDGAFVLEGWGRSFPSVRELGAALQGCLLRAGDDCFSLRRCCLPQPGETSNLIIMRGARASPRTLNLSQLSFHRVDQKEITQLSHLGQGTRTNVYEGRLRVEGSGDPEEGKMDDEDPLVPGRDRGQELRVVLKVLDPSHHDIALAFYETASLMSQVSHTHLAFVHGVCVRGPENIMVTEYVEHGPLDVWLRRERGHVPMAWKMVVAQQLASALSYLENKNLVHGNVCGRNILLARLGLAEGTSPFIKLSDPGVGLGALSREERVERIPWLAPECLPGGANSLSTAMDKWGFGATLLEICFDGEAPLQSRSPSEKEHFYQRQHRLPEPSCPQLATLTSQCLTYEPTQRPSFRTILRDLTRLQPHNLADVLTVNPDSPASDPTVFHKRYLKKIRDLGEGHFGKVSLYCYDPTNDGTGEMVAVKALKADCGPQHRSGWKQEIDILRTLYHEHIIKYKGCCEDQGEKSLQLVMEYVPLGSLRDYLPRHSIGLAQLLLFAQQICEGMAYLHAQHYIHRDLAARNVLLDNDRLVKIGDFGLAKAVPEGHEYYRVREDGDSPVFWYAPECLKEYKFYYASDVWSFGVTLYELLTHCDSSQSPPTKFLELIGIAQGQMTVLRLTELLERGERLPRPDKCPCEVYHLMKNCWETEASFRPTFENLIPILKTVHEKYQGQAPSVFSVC
Test: TYK2 enzyme inhibition test (LANCE method)
Type: biochemical
Details: 1 μM test compound; read-out: TYK2 enzyme inhibitory activity (%, 1 μM)
readoutLabel: inhibition at 1 µM (%)
Answers are plain numbers, in %.

Field: example entries. Status: answers known.
CC(C)[C@H](C)n1cc(-c2cc(N3CCN(S(C)(=O)=O)CC3)n(C)n2)c2[nH]nc(N)c2c1=O = 100
COC1(c2cc(-c3cn([C@@H](C)C4CC4)c(=O)c4c(N)n[nH]c34)nn2C)CN(C(=O)C(C)C)C1 = 100
CC(C)[C@H](C)n1cc(-c2cc(N3CCN4CCCC4C3)n(C)n2)c2[nH]nc(N)c2c1=O (stereo partly drawn) = 99

Answer for every listed entry: what is its inhibition at 1 µM? The entries follow.
1. CC(C)[C@H](C)n1cc(-c2cc(C(C)(C)O)n(C)n2)c2[nH]nc(N)c2c1=O
2. COC1(c2cc(-c3cn([C@@H](C)C(C)C)c(=O)c4c(N)n[nH]c34)nn2C)CCS(=O)(=O)CC1
3. CC(C)[C@H](C)n1cc(-c2cc(C(C)(C)C#N)n(C)n2)c2[nH]nc(N)c2c1=O
4. CC(C)[C@H](C)n1cc(-c2cc(N3CCCCC3=O)n(C)n2)c2[nH]nc(N)c2c1=O
5. CC(C)[C@H](C)n1cc(-c2cc(N3CCC(C)(O)C3)n(C)n2)c2[nH]nc(N)c2c1=O (stereo partly drawn)
6. CN(C[C@H]1CCCN1c1cc(-c2cn(C(C3CC3)C3CC3)c(=O)c3c(N)n[nH]c23)nn1C)C(=O)OC(C)(C)C
7. CC(C)C(C(F)F)n1cc(-c2cc(N3CCOCC3)n(C)n2)c2[nH]nc(N)c2c1=O (stereo not drawn)
8. CC(C)[C@H](C)n1cc(-c2cc(C3=CCOCC3)n(C)n2)c2[nH]nc(N)c2c1=O

1. 99
2. 100
3. 99
4. 99
5. 99
6. 98
7. 99
8. 100

Field: inhibition at 1 µM. Fill in for each record below.
1. Cn1nc(-c2cn(-c3c(F)cccc3F)c(=O)c3c(N)n[nH]c23)cc1N1CCC[C@@H]1CC#N
2. Cn1nc(-c2cn(C3CCCC3(C)C)c(=O)c3c(N)n[nH]c23)cc1N1CCOCC1 (stereo not drawn) [Example 76]
3. COC1(c2cc(-c3cn(C(C4CC4)C4CC4)c(=O)c4c(N)n[nH]c34)nn2C)CN(S(=O)(=O)C(C)C)C1
4. CNC(=O)c1cc(-c2cn(-c3c(F)cccc3F)c(=O)c3c(N)n[nH]c23)nn1C
5. Cn1nc(-c2cn(C(C3CC3)C3CC3)c(=O)c3c(N)n[nH]c23)cc1N1CCOCC1
6. COCCn1nc(-c2cn([C@@H](C)C(C)C)c(=O)c3c(N)n[nH]c23)cc1C(C)(C)O
7. C[C@@H](C1CC1)n1cc(-c2cc(N3CCS(=O)(=O)C(C)(C)C3)n(C)n2)c2[nH]nc(N)c2c1=O

[98, 100, 100, 100, 99, 91, 99]

// input: 5 molecules below; output: inhibition at 1 µM for each
1. CC(C)[C@H](C)n1cc(-c2cc(C3CCOCC3)n(C)n2)c2[nH]nc(N)c2c1=O
2. CC(C)[C@H](C)n1cc(-c2cc(N3CCC(C(C)(C)O)CC3)n(C)n2)c2[nH]nc(N)c2c1=O
3. CC1CCCCC1n1cc(-c2cc(C(C)(C)O)n(C)n2)c2[nH]nc(N)c2c1=O (racemic) [Example 116]
4. CC(=O)NCC(C)(C)c1cc(-c2cn([C@@H](C)C(C)C)c(=O)c3c(N)n[nH]c23)nn1C
5. CC(C)[C@H](C)n1cc(-c2cc(N3CC4(COC4)C3)n(C)n2)c2[nH]nc(N)c2c1=O

100
100
102
99
99

Kindly give each listed record's inhibition at 1 µM.
1. CN(C)[C@@H]1CCN(c2cc(-c3cn(-c4c(F)cccc4F)c(=O)c4c(N)n[nH]c34)nn2C)C1
2. CC(=O)N1CCN(c2cc(-c3cn([C@@H](C)C(C)C)c(=O)c4c(N)n[nH]c34)nn2C)CC1
3. CC(C)[C@H](C)n1cc(-c2cc(N(C)C(C)C)n(C)n2)c2[nH]nc(N)c2c1=O
4. CC1CCCCC1n1cc(-c2cc(N3CCOCC3)n(C)n2)c2[nH]nc(N)c2c1=O (stereo not drawn) [Example 152]
5. COC[C@H]1CCCN1c1cc(-c2cn([C@@H](C)C(C)C)c(=O)c3c(N)n[nH]c23)nn1C

1: 99; 2: 100; 3: 100; 4: 102; 5: 100

Below are some molecules; for each one, tell me its inhibition at 1 µM.
1. Cn1nc(-c2cn(-c3c(F)cccc3C#N)c(=O)c3c(N)n[nH]c23)cc1N1CCOCC1
2. COC1(c2cc(-c3cn(-c4c(F)cccc4F)c(=O)c4c(N)n[nH]c34)nn2C)CN(C(=O)C(C)C)C1

100
101

###

Target: JAK1 (Homo sapiens, UniProt P23458)
Construct: purchased Invitrogen
Sequence (P23458 whole entry): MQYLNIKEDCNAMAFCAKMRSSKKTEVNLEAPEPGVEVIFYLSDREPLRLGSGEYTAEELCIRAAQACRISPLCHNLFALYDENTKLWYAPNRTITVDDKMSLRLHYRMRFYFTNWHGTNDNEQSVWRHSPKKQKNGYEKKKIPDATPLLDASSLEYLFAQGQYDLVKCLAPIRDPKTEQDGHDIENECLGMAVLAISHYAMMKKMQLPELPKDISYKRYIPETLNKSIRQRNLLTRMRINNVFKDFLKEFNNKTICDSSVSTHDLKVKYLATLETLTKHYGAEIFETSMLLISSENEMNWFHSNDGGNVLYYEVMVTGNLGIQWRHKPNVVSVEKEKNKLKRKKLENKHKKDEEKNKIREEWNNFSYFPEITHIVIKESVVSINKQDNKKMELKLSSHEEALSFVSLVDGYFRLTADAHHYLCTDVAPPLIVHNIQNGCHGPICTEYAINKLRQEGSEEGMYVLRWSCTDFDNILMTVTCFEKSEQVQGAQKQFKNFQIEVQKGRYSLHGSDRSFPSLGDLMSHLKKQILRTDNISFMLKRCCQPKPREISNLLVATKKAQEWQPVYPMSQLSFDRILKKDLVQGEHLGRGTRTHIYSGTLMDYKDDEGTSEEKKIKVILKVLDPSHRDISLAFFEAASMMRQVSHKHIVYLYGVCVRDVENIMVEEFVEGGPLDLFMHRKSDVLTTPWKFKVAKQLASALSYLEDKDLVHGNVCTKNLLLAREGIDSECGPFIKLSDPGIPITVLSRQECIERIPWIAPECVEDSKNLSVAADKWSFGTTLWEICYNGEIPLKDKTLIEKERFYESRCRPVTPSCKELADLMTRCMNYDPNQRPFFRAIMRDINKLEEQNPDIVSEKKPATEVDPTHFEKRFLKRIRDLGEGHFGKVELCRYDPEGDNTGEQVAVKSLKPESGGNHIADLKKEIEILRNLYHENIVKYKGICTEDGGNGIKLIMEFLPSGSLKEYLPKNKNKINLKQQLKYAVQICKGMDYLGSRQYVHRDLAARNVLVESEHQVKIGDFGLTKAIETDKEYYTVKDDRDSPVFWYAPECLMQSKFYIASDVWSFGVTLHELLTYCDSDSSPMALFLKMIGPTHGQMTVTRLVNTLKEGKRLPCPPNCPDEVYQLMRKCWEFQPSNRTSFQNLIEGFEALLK
Test: JAK1 enzyme inhibition test (LANCE method)
Type: biochemical
Details: 1 μM test compound; read-out: JAK1 enzyme inhibitory activity (%, 1 μM)
I'd be grateful if you could share measured inhibition at 1 µM for these entries.
Answers are plain numbers, in %.

Answered cases to consult:
COC1CCN(c2cc(-c3cn([C@@H](C)C(C)C)c(=O)c4c(N)n[nH]c34)nn2C)CC1 = 97
CO[C@]1(c2cc(-c3cn(-c4c(F)cccc4F)c(=O)c4c(N)n[nH]c34)nn2C)C[C@H](C(=O)N(C)C)C1 = 99
Cn1nc(-c2cn(C(C3CC3)C3CC3)c(=O)c3c(N)n[nH]c23)cc1N1CCC[C@@H]1CN1CCCC1 = 92
Cn1nc(-c2cn(C3CCCC3(C)C)c(=O)c3c(N)n[nH]c23)cc1CN1CCS(=O)(=O)CC1 (racemic) = 99
Cn1nc(-c2cn(C(C3CC3)C3CC3)c(=O)c3c(N)n[nH]c23)cc1N1CCS(=O)(=O)C(C)(C)C1 = 99

Hi team, please reply with inhibition at 1 µM for each item in this list.
1. CO[C@@H]1CCN(c2cc(-c3cn(C(C4CC4)C4CC4)c(=O)c4c(N)n[nH]c34)nn2C)C1
2. CC(C)[C@H](C)n1cc(-c2cc(C(C)(C)O)n(C)n2)c2[nH]nc(N)c2c1=O
3. CN(C)[C@@H]1CCN(c2cc(-c3cn(-c4c(F)cccc4F)c(=O)c4c(N)n[nH]c34)nn2C)C1
4. CCn1nc(-c2cn([C@@H](C)C(C)C)c(=O)c3c(N)n[nH]c23)cc1N1CCS(=O)(=O)CC1
5. CC(=O)N(C)C[C@H]1CCCN1c1cc(-c2cn(C(C3CC3)C3CC3)c(=O)c3c(N)n[nH]c23)nn1C
6. Cn1nc(-c2cn(C(C3CC3)C3CC3)c(=O)c3c(N)n[nH]c23)cc1N1CCN2CCC[C@H]2C1

99
97
98
78
96
99

###

Molecular target: JAK3 (Homo sapiens, UniProt P52333)
Construct: purchased Invitrogen
Sequence (P52333 whole entry): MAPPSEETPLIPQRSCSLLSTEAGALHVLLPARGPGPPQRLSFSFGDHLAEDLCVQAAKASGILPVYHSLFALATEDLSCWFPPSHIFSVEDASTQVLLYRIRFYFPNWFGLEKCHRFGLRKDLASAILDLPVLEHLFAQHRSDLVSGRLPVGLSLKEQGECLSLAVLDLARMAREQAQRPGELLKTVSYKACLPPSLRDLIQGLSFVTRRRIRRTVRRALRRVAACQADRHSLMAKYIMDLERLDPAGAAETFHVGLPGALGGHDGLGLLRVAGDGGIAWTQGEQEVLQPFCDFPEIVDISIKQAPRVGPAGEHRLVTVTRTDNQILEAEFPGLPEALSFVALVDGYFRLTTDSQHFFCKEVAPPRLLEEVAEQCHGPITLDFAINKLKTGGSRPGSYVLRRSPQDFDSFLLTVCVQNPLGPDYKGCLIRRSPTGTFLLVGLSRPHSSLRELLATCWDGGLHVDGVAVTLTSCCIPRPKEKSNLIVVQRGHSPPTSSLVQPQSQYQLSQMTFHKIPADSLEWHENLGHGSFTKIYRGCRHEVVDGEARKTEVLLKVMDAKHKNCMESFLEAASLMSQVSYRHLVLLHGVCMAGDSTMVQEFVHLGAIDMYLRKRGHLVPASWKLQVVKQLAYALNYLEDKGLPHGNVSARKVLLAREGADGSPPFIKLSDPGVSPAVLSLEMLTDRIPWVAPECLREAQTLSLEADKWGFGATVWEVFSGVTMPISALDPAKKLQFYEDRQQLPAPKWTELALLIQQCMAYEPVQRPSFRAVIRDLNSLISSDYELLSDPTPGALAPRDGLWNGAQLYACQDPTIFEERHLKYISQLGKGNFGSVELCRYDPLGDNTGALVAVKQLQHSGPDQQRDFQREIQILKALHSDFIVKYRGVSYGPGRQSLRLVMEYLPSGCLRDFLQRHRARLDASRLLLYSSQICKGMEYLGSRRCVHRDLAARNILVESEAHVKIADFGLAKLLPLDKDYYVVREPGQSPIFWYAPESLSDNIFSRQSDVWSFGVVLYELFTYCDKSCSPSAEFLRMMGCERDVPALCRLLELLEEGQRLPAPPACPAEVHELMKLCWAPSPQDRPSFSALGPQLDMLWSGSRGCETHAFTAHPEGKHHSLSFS
Assay: JAK3 enzyme inhibition test (LANCE method)
Type: biochemical
Conditions: 1 μM test compound; 1 µM
readoutLabel: JAK3 enzyme inhibitory activity (%, 1 μM) (%)
Answers are plain numbers, in %.

CC(C)[C@H](C)n1cc(-c2cc(N3CCC(C)(O)C3)n(C)n2)c2[nH]nc(N)c2c1=O (some centres unmarked) [Example 63] = 100
COC1(c2cc(-c3cn(C(C#N)C(C)C)c(=O)c4c(N)n[nH]c34)nn2C)CCC(F)(F)CC1 (centres unmarked) [Example 139] = 66
CC1CCCCC1n1cc(-c2cc(C(C)(C)O)n(C)n2)c2[nH]nc(N)c2c1=O (centres unmarked) [Example 118] = 99
CC1CCCCC1n1cc(-c2cc(N3CCOCC3)n(C)n2)c2[nH]nc(N)c2c1=O (centres unmarked) [Example 153] = 101
CC1CCCCC1n1cc(-c2cc(N3CCOCC3)n(C)n2)c2[nH]nc(N)c2c1=O (centres unmarked) [Example 155] = 98

Give one value of JAK3 enzyme inhibitory activity (%, 1 μM) per listed compound.
1. CC(C)C(C#N)n1cc(-c2cc(N3CCOCC3)n(C)n2)c2[nH]nc(N)c2c1=O (centres unmarked)
2. CC(C)[C@H](C)n1cc(-c2cc(N3CCCC3CN(C)C)n(C)n2)c2[nH]nc(N)c2c1=O (some centres unmarked)
3. CC1CCCCC1n1cc(-c2cc(C(C)(C)O)n(C)n2)c2[nH]nc(N)c2c1=O (centres unmarked) [Example 120]
4. CC(C)[C@H](C)n1cc(-c2cc(N3CCC(C)(O)C3)n(C)n2)c2[nH]nc(N)c2c1=O (some centres unmarked) [Example 64]
5. CC1CCCCC1n1cc(-c2cc(N3CCOCC3)n(C)n2)c2[nH]nc(N)c2c1=O (centres unmarked) [Example 154]

1. 84
2. 98
3. 100
4. 99
5. 100

Please report JAK3 enzyme inhibitory activity (%, 1 μM) for every entry that follows.
1. CC(C)[C@H](C)n1cc(-c2cc(N3CCN4CCCC4C3)n(C)n2)c2[nH]nc(N)c2c1=O (some centres unmarked) [Example 62]
2. COC1(c2cc(-c3cn(C(C#N)C(C)C)c(=O)c4c(N)n[nH]c34)nn2C)CCC(F)(F)CC1 (centres unmarked) [Example 138]
3. CC1CCCCC1n1cc(-c2cc(C(C)(C)O)n(C)n2)c2[nH]nc(N)c2c1=O (centres unmarked) [Example 119]
4. CC(C)[C@H](C)n1cc(-c2cc(N3CCN4CCCC4C3)n(C)n2)c2[nH]nc(N)c2c1=O (some centres unmarked) [Example 61]
5. COC1(c2cc(-c3cn(C(C#N)C(C)C)c(=O)c4c(N)n[nH]c34)nn2C)CCC(F)(F)CC1 (centres unmarked) [Example 137]
6. Cn1nc(-c2cn(C3CCCC3(C)C)c(=O)c3c(N)n[nH]c23)cc1CN1CCS(=O)(=O)CC1 (centres unmarked)
7. Cn1nc(-c2cn(C3CCCC3(C)C)c(=O)c3c(N)n[nH]c23)cc1N1CCOCC1 (centres unmarked)

1. 99
2. 99
3. 100
4. 100
5. 98
6. 93
7. 90
